Tgt: human serum albumin (HSA) (Homo sapiens, UniProt P02768)
Sequence (P02768 25-609): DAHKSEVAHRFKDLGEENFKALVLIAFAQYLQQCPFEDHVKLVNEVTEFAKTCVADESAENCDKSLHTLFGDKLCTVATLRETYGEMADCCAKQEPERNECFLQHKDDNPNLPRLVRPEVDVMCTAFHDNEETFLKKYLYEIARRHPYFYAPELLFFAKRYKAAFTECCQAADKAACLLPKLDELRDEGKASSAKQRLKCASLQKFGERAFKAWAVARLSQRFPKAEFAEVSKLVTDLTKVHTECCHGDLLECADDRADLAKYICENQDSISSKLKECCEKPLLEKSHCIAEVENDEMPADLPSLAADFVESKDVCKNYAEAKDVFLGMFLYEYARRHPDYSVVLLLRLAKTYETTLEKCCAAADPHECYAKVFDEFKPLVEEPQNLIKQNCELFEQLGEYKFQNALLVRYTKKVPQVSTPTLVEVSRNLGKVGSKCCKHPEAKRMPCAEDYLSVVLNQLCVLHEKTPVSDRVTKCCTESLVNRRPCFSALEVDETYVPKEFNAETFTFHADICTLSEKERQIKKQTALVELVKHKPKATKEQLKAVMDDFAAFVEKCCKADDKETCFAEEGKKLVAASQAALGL
Test Context: pH 7.4
Test Readout: k HSA
Numbers only.

Record excerpt, results attached:
Req: Please report the recorded k HSA for O=C1Nc2ccc(Cl)cc2C(c2ccccc2Cl)=NC1O (stereo not drawn) .
Resp: 2.21

Req: Try this molecule next: O=C(O)C1N=C(c2ccccc2)c2cc(Cl)ccc2NC1=O (stereo not drawn) [clorazepate]
Resp: 3.99

Now let's try a different one.
Req: State the recorded k HSA for this entry: CN1C[C@H](C(=O)N[C@]2(C)O[C@@]3(O)[C@@H]4CCCN4C(=O)[C@H](Cc4ccccc4)N3C2=O)C[C@@H]2c3cccc4[nH]cc(c34)C[C@H]21 [dihydroergotamine]
Resp: 0.23

* * *

Experiment Description: HPLC on immobilized artificial membrane column (HPLCIAM)
Type: physicochemical
Test Context: Table S5, IAM column, pH 7.4
I'd be grateful if you could share measured log k IAM for these entries.
Give bare numbers.

Req: Looking for the measured log k IAM of CN(C)CCCN1c2ccccc2Sc2ccccc21 , can you help?
Resp: -1.02

Each molecule below has a reported value. Please supply its log k IAM.
1. CC(=O)Oc1ccccc1C(=O)O
2. CN1CCN=C(c2ccccc2)c2cc(Cl)ccc21
3. Clc1ccc2c(c1)CCc1cccnc1C2=C1CCNCC1
4. CC(=O)[C@H]1CC[C@H]2[C@@H]3CCC4=CC(=O)CC[C@]4(C)[C@H]3CC[C@]12C

Resp:
1. -1.52
2. 1.54
3. 1.70
4. 1.54

Dear colleague, could you please provide log k IAM for the molecules listed below?
1. CC(=O)CC(c1ccc([N+](=O)[O-])cc1)c1c(O)c2ccccc2oc1=O (stereo not drawn)
2. CN[C@H]1CC[C@@H](c2ccc(Cl)c(Cl)c2)c2ccccc21
3. Cc1nnc2n1-c1ccc(Cl)cc1C(c1ccccc1)=NC2
4. CC(=O)Nc1ccc(O)cc1

Resp:
1. -0.27
2. 1.63
3. 0.50
4. -0.49

I'm hoping you can list log k IAM for every molecule here, please.
1. Cc1cncc(CN2CCC(=C3c4ccc(Cl)cc4CCc4cccnc43)CC2)c1
2. CN1CCN2c3ccccc3Cc3ccccc3C2C1 (stereo not drawn)
3. O=c1n(CCCN2CCN(c3cccc(Cl)c3)CC2)nc2ccccn12

Resp:
1: 0.97; 2: 1.34; 3: 0.97

* * *

Experiment Description: HPLC on immobilized artificial membrane column (HPLCIAM)
Format: physicochemical
Test Context: Table S5, retention factor, IAM column, phosphate buffer pH 7.4/acetonitrile 80:20
// Not met strictly below 3 in k IAM; Met otherwise

Req: Is it the case that CN1C(=O)CC(=O)N(c2ccccc2)c2cc(Cl)ccc21 [clobazam] has k IAM reaching or exceeding 3?
Resp: Not met

***
Req: Would you say CN(C)CCOC(c1ccccc1)c1ccccc1 [diphenhydramin] shows k IAM at minimum 3?
Resp: Met

Req: Also, COC(=O)[C@@H]1CC2=CC(=O)CC[C@]2(C)[C@@]23O[C@@H]2C[C@@]2(C)[C@@H](CC[C@@]24CCC(=O)O4)[C@H]13 [eplerenone] please.
Resp: Not met

Req: Ok, now NS(=O)(=O)c1cc(C2(O)NC(=O)c3ccccc32)ccc1Cl (stereo not shown) [chlortalidone]
Resp: Not met

Req: What do we get for CC(=O)OCC(=O)[C@@]1(O)CC[C@H]2[C@@H]3CCC4=CC(=O)CC[C@]4(C)[C@H]3[C@@H](O)C[C@@]21C [hydrocortisone acetate] ?
Resp: Not met

Req: And the next one, O=C(O)COCCN1CCN([C@H](c2ccccc2)c2ccc(Cl)cc2)CC1 [levocetrizine] ?
Resp: Met

Req: Also need CN[C@H]1CC[C@@H](c2ccc(Cl)c(Cl)c2)c2ccccc21 [sertraline] , thanks.
Resp: Met

Req: Moving on to the next molecule: O=C(O)C1N=C(c2ccccc2)c2cc(Cl)ccc2NC1=O (stereo not shown) [clorazepate]
Resp: Met
